System: MS2 coat protein
Assay: apparent KD of MS2 coat protein; designed switch direction (-1 OFF switch, 1 ON switch): -1; higher = weaker reporter binding
Conditions: input ligand: FMN 200 uM

| item.sequence | study.system | unit.abbreviation | apparent KD of MS2 coat protein |
| --- | --- | --- | --- |
| ACAAGCUUUUAGAUUUUCAACAUGAGGAUCACCCAUGUUCGUCUUAUGCUAGUGCUAGUGCGGUGUACUGGUAUUAG [JL TOV1 3.80 sellena mod] (Eterna round: R97, puzzle: Sensor, turn-off variant 1) | MS2 coat protein | nM | 16.9 |
| GAUUAGAUAGGAUAUACAGGCUCGUCUUUAUAUUGAUCCCGACAUGAGGAUCACCCAUGUAGAAGGAUUAGAUU [Mod 30 - Jieux - Exclusion 2] (Eterna round: R97, puzzle: Exclusion 2) | MS2 coat protein | nM | 25.7 |
| UGAGUGCUGCGAGGAUAUACAUGAGGAUCACCCAUGUGGAUGUCUGAGGCUUUGCCUCAGACGAUGUAGAAGGCGCAGUACUCU [JL ENG2 1.20] (Eterna round: R96, puzzle: Exclusion NG 2) | MS2 coat protein | nM | 100 |
| AGGAGCCCACGGGCUCCAAAACAUGAGGAUCACCCAUGUCAGUAGGAUAUCAUGCUUUUCUGCUGUGAGAAGGGCUGAUGUGGC [Esededor] (Eterna round: R96, puzzle: Exclusion NG 3) | MS2 coat protein | nM | 199 |
| CCCGUGUAAGGAUAUCGUUCACUUGACAAAAGUCAAGUGAACGAGAAGGUACAUGAGGAUCACCCAUGUACGGG [-33.8, -33.4 kcal, A 32%] (Eterna round: R97, puzzle: Exclusion 4) | MS2 coat protein | nM | 418 |
| CUGAACCCGGUAGGAUAUAUUGUGGGCGGGCGUGGAACGACAUGAGGAUCACCCAUGUAAUUGAGGUAGAAGGGCCGAGAGAUU [Excl-NG2-LRO15] (Eterna round: R96, puzzle: Exclusion NG 2) | MS2 coat protein | nM | 37.9 |
| UUAAUUACGGUGCUUUAACCUCACAUGAGGAUCACCCAUGUGCAGGAUAUCAGCUCGUUUAGAGCUGAGAAGGGCACUGCACCG [ExNG3/11-A2] (Eterna round: R96, puzzle: Exclusion NG 3) | MS2 coat protein | nM | 13.9 |
| CUAGCGAAUGUAGGAUAUCGGACUGUUUCAGUCUGAGAAGGACAUGAGGAUCACCCAUGUGAAGCUACGUGAGUAGCACGCUAG [JL ENG1 3.86] (Eterna round: R96, puzzle: Exclusion NG 1) | MS2 coat protein | nM | 111 |
| CAUAGUUGCUCAGGAUAUCAUACAUGAGGAUCACCCAUGUAAUAAAUGAGAAUUUCGAAUGUAAAUGAGAAGGGAGAAAUCUAC [Ostracism 60 - Jieux - Exclusion NG 2] (Eterna round: R96, puzzle: Exclusion NG 2) | MS2 coat protein | nM | 22.5 |
| GCCCUUAUUGUUAGGAUAUAACGGAAAUACAACCGUUAGAAGGAACAUGAGGAUCACCCAUGUGCCAUACAGCC [Eternabot (Original) Solution 39] (Eterna round: R97, puzzle: Brourd's mod of Exclusion 4) | MS2 coat protein | nM | 119 |
| AAUAAUAAAGUCAGGAUAUCUAGAGCUGCGGCUCUAGAGAAGGGACAUGAGGAUCACCCAUGUCACUCAAUAAU [BmEx4/3-D3] (Eterna round: R97, puzzle: Brourd's mod of Exclusion 4) | MS2 coat protein | nM | 18.1 |
| CUACCCUCAGGAUAUUUUGCACUGUACAUGAGGAUCACCCAUGUGACGUCUGUUAAUCAAAGAGAAGGGAGAGGUG [Eternabot (L1) Solution 27] (Eterna round: R97, puzzle: Exclusion 5) | MS2 coat protein | nM | 19.7 |
| ACUUAUUGAGGAUAUACAGAUUAUUACAUGAGGAUCACCCAUGUUCUUCAAUGUAUAUAUGUAGAAGGCAGAAGAA [JL-ex5-4.25 Malcolm mod] (Eterna round: R97, puzzle: Exclusion 5) | MS2 coat protein | nM | 179 |
| AAACAAGCAACGAGAUCCCACAUGAGGAUCACCCAUGUCAACUGGAGUUUUAAAUCUUUAGGCUCGUUUUAUAACAA [S_tov1_V1.2] (Eterna round: R97, puzzle: Sensor, turn-off variant 1) | MS2 coat protein | nM | 50.4 |
| AUUAGCGUAGGAUAUUGAAACAUGUACAUGAGGAUCACCCAUGUGAGGUGAGUCUUCGUUUAAGAAGGGCGCAGAA [EX5 #40] (Eterna round: R97, puzzle: Exclusion 5) | MS2 coat protein | nM | 213 |
| GUAUGGUGAGGAUAUCGCCCUGCCUGCUCAAAGGCGAUGGACGAGAAGGCACAUGAGGAUCACCCAUGUCUGGG [Eternabot (L2) Solution 65] (Eterna round: R97, puzzle: Exclusion 4) | MS2 coat protein | nM | 161 |
| ACAUGAGGAUCACCCAUGUACAGGGUUUAGUUUCAUCGUUUGAAGGAUAUACACUGUUAGUUGUCGUAGAAGGUCACUGAUUGG [JR_ExcNG3_Sub010] (Eterna round: R96, puzzle: Exclusion NG 3) | MS2 coat protein | nM | 93.9 |
| AAGUAGACAGUGAGGAUAUUGGUGGAAUGACACAUUAAGAAGGUACAUGAGGAUCACCCAUGUGGGUAAUGUCG [Brourd's EX4 #26] (Eterna round: R97, puzzle: Brourd's mod of Exclusion 4) | MS2 coat protein | nM | 64.8 |

* * *

Readings of apparent KD of MS2 coat protein for the listed sequences
Tested on: MS2 coat protein
Assay: apparent KD of MS2 coat protein; designed switch direction (-1 OFF switch, 1 ON switch): -1; higher = weaker reporter binding
Conditions: input ligand: microRNA oligo, concentration not stated
result.type: apparent KD of MS2 coat protein (nM)

| item.sequence | result.type | experimental.result |
| --- | --- | --- |
| UUGUUGUAUGUAGGAUAUGCAUGUUAUUAUUAUGCAGAAGGACAUGAGGAUCACCCAUGUGUAUUAUUAUUAUAUAUUAUAUAU [Title] (Eterna round: R96, puzzle: Exclusion NG 1) | apparent KD of MS2 coat protein | 15.4 |
| UAUAUAUAGUAAGGAUAUGUAUUAAAUUUAUAAACAGAAGGUACUGACAUGAGGAUCACCCAUGUUUUAGUGUGGGCAUGUAGA [JMF's solution 75] (Eterna round: R96, puzzle: Exclusion NG 1) | apparent KD of MS2 coat protein | 69 |
| AGUAACUCAAGAGGAUAUCACAUGAGGAUCACCCAUGUAUAGCGCGCUAUGCUAGUCCUCGUAUUUGAGAAGGUUUGAUAAAUG [JL ViennaUCT Quve mod 2] (Eterna round: R96, puzzle: Exclusion NG 2) | apparent KD of MS2 coat protein | 13.1 |
| AGUUGUUGCGUAGGAUAUGAGGAUCACCCAUAGUAGGAUAACGAAAGUGAAGGACUGAGGAUUACCCAGAAGGACGUGAUGACA [pwkr exNG2 2xF5 2xFMN.6] (Eterna round: R96, puzzle: Exclusion NG 2) | apparent KD of MS2 coat protein | 234 |
| UAGACCUCGUCAGGAUAUCCAGGUUCUUCGCCCGGAGAAGGGACAUGAGGAUCACCCAUGUAGGAGAGCAUCGCUGUCGAGCAA [Redixeri] (Eterna round: R96, puzzle: Exclusion NG 1) | apparent KD of MS2 coat protein | 11.5 |
| CUGCUCCGUGUAGGAUAUCGCCGCACCACCCGGCGAGAAGGACAUGAGGAUCACCCAUGUAUGUUAUUAUCACGUGUGGCGCGC [Design 40] (Eterna round: R96, puzzle: Exclusion NG 1) | apparent KD of MS2 coat protein | 11.7 |
| UGUUGUCGCGCAGGAUAUGUAUGAGGAUCACCCAUUAAUAAAUUUUAACCACGAGGAUCACCCGUGUAGAAGGGCGCGACAACA [pwkr exNG2 2xF5 1xFMN.17] (Eterna round: R96, puzzle: Exclusion NG 2) | apparent KD of MS2 coat protein | 19.7 |
| AGCUGUGGCCGAGGAUAUCUAAACCUUCAAACCGAAAUAUAAUCGGACAUGAGGAUCACCCAUGUAGAGAAGGCGGUCUCAGCA [Eli eng2 - 034] (Eterna round: R96, puzzle: Exclusion NG 2) | apparent KD of MS2 coat protein | 9.91 |
| AGUCCUAGUCAAGGAUAUACACCGAAGAAAUACGUAGAAGGUGACAUGAGGAUCACCCAUGUAGGGACUCUGGAAACAGAGGAA [Arordi] (Eterna round: R96, puzzle: Exclusion NG 1) | apparent KD of MS2 coat protein | 93.4 |
| AUUAUGUCAGGAUAUCAGUAGUAAAAAAAAAAAAUUACUACUGAGAAGGGACAUGAGGAUCACCCAUGUCAAAA [EX4 308: Super Stable 8] (Eterna round: R96, puzzle: Exclusion 4) | apparent KD of MS2 coat protein | 21.3 |
| GCGGACUCGAUCGUGAGAUCGGAGACAUGAGGAUCACCCAUGUAGGAUAUCGAUUGCUUUGCAGUCGAGAAGGGCGUGGUCCGC [JL denovo 17] (Eterna round: R96, puzzle: Exclusion NG 3) | apparent KD of MS2 coat protein | 98.1 |
| UUGUAAUGAUUAGGAUAUUAUUAAUAGAACUUUAUGAUAUACAUGAGGAUCACCCAUGUUACUUAUAAGAAGGAAUCGUAUUAU [JR_ExcNG2_Sub092] (Eterna round: R96, puzzle: Exclusion NG 2) | apparent KD of MS2 coat protein | 15.7 |
| UAUAUAUAGUAAGGAUAUGUAAUUAUUUUACAAACAGAAGGUACUGACAUGAGGAUCACCCAUGUUUUAGUGUGGGCAUGUAGA [JMF's solution 46] (Eterna round: R96, puzzle: Exclusion NG 1) | apparent KD of MS2 coat protein | 39.7 |
| UAAGAUUACCGAGGAUAUGGUAGUACAUAUUAACCAGAAGGCGGACUCAACAUGAGGAUCACCCAUGUAUAAAGGGUAUUAGGU [JR_ExcNG1_Sub042] (Eterna round: R96, puzzle: Exclusion NG 1) | apparent KD of MS2 coat protein | 60.3 |
| AUCGUGCAGCAAAGCUGUACGAGUACAUGAGGAUCACCCAUGUAGGAUAUGGUACGCAAAGCGUGCUAGAAGGAUAUGUGUAGG [Mat - Exclusion NG 3 - Mod of JL - D84] (Eterna round: R96, puzzle: Exclusion NG 3) | apparent KD of MS2 coat protein | 44.6 |
| AAGAUUAUUUCAGGAUAUAGAUUGAUGAUCGUACUAGAAGGGAAAACACAGUACAUGAGGAUCACCCAUGUUCAUGUAGUGCCA [Eternabot solution 29] (Eterna round: R96, puzzle: Exclusion NG 1) | apparent KD of MS2 coat protein | 13.4 |
| ACAUGAGGAUCACCCAUGUGAAAGAAAUGGCUGACUUUGAGCUAGGAUAUUUGUGCAUAUCAAACAAAGAAGGAGCAUUACUGG [Deportation 99 - Jieux - Exclusion NG 3] (Eterna round: R96, puzzle: Exclusion NG 3) | apparent KD of MS2 coat protein | 16.9 |
| GCGCCAUCGUGAGAUGGCGUAAUUACAUGAGGAUCACCCAUGUAGGAUAUCGAUUGCUUUGCAGUCGAGAAGGGCGUGAUAAGU [JL ENG3 3.71] (Eterna round: R96, puzzle: Exclusion NG 3) | apparent KD of MS2 coat protein | 59.5 |

Cited source for all entries: the supplement of paper PMC9170038
